Examples of molecules with documented TGI follow.
test system: MDA-MB-435; test: NCI tumour cell line growth inhibition, 48 h

Illustrative cases are given below, each with its answer.
[[record]]
molecule = "C=C1CC(COc2ccc3c(C)c(C)c(=O)oc3c2C)(c2ccccc2)OC1=O (configuration not stated)"
targetorsystem = "MDA-MB-435"
result = "7.96 µM"

[[record]]
molecule = "COc1cc2[nH]c(=O)c3cc(-c4ccccc4)cc4c(Cl)nc(c1OC)c2c43"
targetorsystem = "MDA-MB-435"
result = "8.84 µM"


(Q) What measured TGI goes with CS(=O)(=O)c1ccc(Cl)c([N+](=O)[O-])c1 ?
(A) 38.4 µM

(Q) What measured TGI goes with COc1ccc(-c2cc(-c3ccc(Cl)cc3)c(C#N)c(=O)n2CCCCC(=O)Nc2ccccc2N)cc1 ?
(A) > 100 µM

(Q) What measured TGI goes with CCN(CCCCCCCCCCN1CC(=O)N(CCCCCCCCCCN(CC)Cc2ccccc2OC)CC1=O)Cc1ccccc1OC ?
(A) 2.96 µM

(Q) What measured TGI goes with Cc1cn(CCCCCOC(=O)NC(CCCNC(N)=O)C(=O)O)c(=O)[nH]c1=O (configuration not stated) ?
(A) > 100 µM

(Q) What measured TGI goes with Nc1c(C(=O)Nc2ccc([As](=O)(O)O)cc2)cnc2nnnn12 ?
(A) > 100 µM

(Q) What measured TGI goes with COc1ccc(C2Oc3c(OC)cc(CCCO)cc3C2CO)cc1OC (configuration not stated) ?
(A) > 100 µM

(Q) What measured TGI goes with CSc1ccc(/C=C2\CNC/C(=C\c3ccc(SC)cc3)C2=O)cc1 ?
(A) > 371 µM

(Q) What measured TGI goes with CC1CCc2sc3nc4n(c(=O)c3c2C1)CC(C)S4 (configuration not stated) ?
(A) > 100 µM

(Q) What measured TGI goes with O=c1oc2ccccc2c(O)c1C=NC(=S)c1ccncc1 ?
(A) > 100 µM

(Q) What measured TGI goes with CCOc1snc(C(Cl)(Cl)Cl)c1Cl ?
(A) > 100 µM

(Q) What measured TGI goes with O=C1c2cccnc2S(=O)(=O)N1c1ccc([N+](=O)[O-])cc1 ?
(A) > 100 µM

(Q) What measured TGI goes with CC1(C)OC[C@@H](C[C@H](O)COCc2ccccc2)O1 ?
(A) > 100 µM

(Q) What measured TGI goes with CCOC(=O)/C=C(/C=C\COC1CCCCO1)c1ccccc1 (configuration not stated) ?
(A) > 100 µM

(Q) What measured TGI goes with O=C(Nc1ccc(OC(F)(F)F)cc1)c1sccc1NCc1ccnc2ccccc12 ?
(A) 18.7 µM

All values here come from PubChem BioAssay (NCI).
